Values compiled from ChEMBL document CHEMBL5724914.

- assayRemarks: The drug is tested on WLS-039 corresponding to human gut metagenome with ENA study accession number: PRJEB37062 and ENA sample accession number: ERS12561746 for biotransformation under anaerobic condition. The drug concentrations were measured over 9 timepoints collected between 0 and 24 hours of incubation by liquid-chromatography-coupled mass spectrometry (LC–MS); further: call rule not given here
- measurementConditions: 2 µM

# molecule, Bacterial Biotransformation
rows = [
    ("CCN(CC)C(C)CN1c2ccccc2Sc2ccccc21 (stereo unspecified)", "Compound metabolized"),
    ("O=c1[nH]c2ccccc2n1C1CCN(CCCC(c2ccc(F)cc2)c2ccc(F)cc2)CC1 [PIMOZIDE]", "Compound NOT metabolized"),
    ("Fc1ccc([C@@H]2CCNC[C@H]2COc2ccc3c(c2)OCO3)cc1", "Compound metabolized"),
    ("COc1cc2nc(N3CCN(C(=O)c4ccco4)CC3)nc(N)c2cc1OC", "Compound NOT metabolized"),
    ("NC(=O)N1c2ccccc2CC(=O)c2ccccc21 [OXCARBAZEPINE]", "Compound NOT metabolized"),
    ("CN1CC(=O)N2[C@H](c3ccc4c(c3)OCO4)c3[nH]c4ccccc4c3C[C@@H]2C1=O", "Compound NOT metabolized"),
    ("COC(=O)[C@H]1[C@H]2C[C@@H]3c4[nH]c5cc(OC)ccc5c4CCN3C[C@H]2C[C@@H](OC(=O)c2cc(OC)c(OC)c(OC)c2)[C@@H]1OC", "Compound metabolized"),
    ("CCCC1O[C@@H]2C[C@H]3[C@@H]4CCC5=CC(=O)C=C[C@]5(C)[C@H]4[C@@H](O)C[C@]3(C)[C@]2(C(=O)CO)O1 (stereo partly specified) [BUDESONIDE]", "Compound metabolized"),
    ("Nc1ccc(/N=N/c2ccccc2)c(N)n1", "Compound metabolized"),
    ("CCN(CC)CCOC(=O)C(Cc1cccc2ccccc12)CC1CCCO1.O=C(O)C(=O)O (stereo unspecified) [NAFRONYL OXALATE]", "Compound metabolized"),
    ("CS(=O)(=O)O.O.O.O.O=C1Cc2cc(CCN3CCN(c4nsc5ccccc45)CC3)c(Cl)cc2N1 [ZIPRASIDONE MESYLATE]", "Compound metabolized"),
    ("C[C@@H]1C[C@H]2[C@@H]3CCC4=CC(=O)C=C[C@]4(C)[C@@]3(F)[C@@H](O)C[C@]2(C)[C@@]1(O)C(=O)CO", "Compound NOT metabolized"),
    ("CC(C)NCC(O)COc1ccc(COCCOC(C)C)cc1.CC(C)NCC(O)COc1ccc(COCCOC(C)C)cc1.O=C(O)/C=C/C(=O)O (stereo unspecified) [BISOPROLOL FUMARATE]", "Compound NOT metabolized"),
    ("CC(=O)OCC(=O)[C@@]12N=C(C)O[C@@H]1C[C@H]1[C@@H]3CCC4=CC(=O)C=C[C@]4(C)[C@H]3[C@@H](O)C[C@@]12C", "Compound metabolized"),
    ("CC(C)(C)NC[C@H](O)COc1ccccc1C1CCCC1.CC(C)(C)NC[C@H](O)COc1ccccc1C1CCCC1.O=S(=O)(O)O [PENBUTOLOL SULFATE]", "Compound metabolized"),
    ("Cc1ccnc2c1NC(=O)c1cccnc1N2C1CC1", "Compound NOT metabolized"),
]

====

- assayRemarks: The drug is tested on Z-018 corresponding to pig gut metagenome with ENA study accession number: PRJEB37062 and ENA sample accession number: ERS12561817 for biotransformation under anaerobic condition. The drug concentrations were measured over 9 timepoints collected between 0 and 24 hours of incubation by liquid-chromatography-coupled mass spectrometry (LC–MS)
- measurementConditions: 2 µM

# compound, Bacterial Biotransformation
records = [
    ("COc1cc2nc(N(C)CCCNC(=O)C3CCCO3)nc(N)c2cc1OC (stereo not given)", "Compound metabolized"),
    ("CN1C(=O)CC(C)(c2ccccc2)C1=O (stereo not given) [METHSUXIMIDE]", "Compound NOT metabolized"),
    ("CC(C)N(CCC(C(N)=O)(c1ccccc1)c1ccccn1)C(C)C.O=P(O)(O)O (stereo not given) [DISOPYRAMIDE PHOSPHATE]", "Compound NOT metabolized"),
    ("CN(C)CCc1c[nH]c2ccc(Cn3cncn3)cc12.O=C(O)c1ccccc1 [RIZATRIPTAN BENZOATE]", "Compound NOT metabolized"),
    ("CC(C(=O)O)c1ccc2c(c1)Cc1cccnc1O2 (stereo not given)", "Compound metabolized"),
    ("Cc1ccc(-c2nc3ccc(C)cn3c2CC(=O)N(C)C)cc1", "Compound NOT metabolized"),
    ("O=c1[nH]c2ccccc2n1CCCN1CCC(n2c(=O)[nH]c3cc(Cl)ccc32)CC1", "Compound NOT metabolized"),
    ("CCCC(=O)Nc1ccc(OCC(O)CNC(C)C)c(C(C)=O)c1 (stereo not given)", "Compound NOT metabolized"),
    ("COc1ccc2[nH]c([S+]([O-])Cc3ncc(C)c(OC)c3C)nc2c1 (stereo not given)", "Compound NOT metabolized"),
    ("COc1ccc(CCN(C)CCCC(C#N)(c2ccc(OC)c(OC)c2)C(C)C)cc1OC (stereo not given)", "Compound metabolized"),
    ("CO[C@]12C[C@@H](COC(=O)c3cncc(Br)c3)CN(C)[C@@H]1Cc1cn(C)c3cccc2c13", "Compound metabolized"),
    ("CN1CC(=O)N2[C@H](c3ccc4c(c3)OCO4)c3[nH]c4ccccc4c3C[C@@H]2C1=O", "Compound metabolized"),
    ("CN1C(=O)CCS(=O)(=O)C1c1ccc(Cl)cc1 (stereo not given)", "Compound NOT metabolized"),
    ("CCCC1O[C@@H]2C[C@H]3[C@@H]4CCC5=CC(=O)C=C[C@]5(C)[C@H]4[C@@H](O)C[C@]3(C)[C@]2(C(=O)CO)O1 (stereo not given in full) [BUDESONIDE]", "Compound metabolized"),
    ("CN(C)C(=O)C(CCN1CCC(O)(c2ccc(Cl)cc2)CC1)(c1ccccc1)c1ccccc1 [LOPERAMIDE]", "Compound metabolized"),
    ("CN1CCc2c(c3ccccc3n2Cc2ccccc2)C1.CN1CCc2c(c3ccccc3n2Cc2ccccc2)C1.O=S(=O)(O)c1cccc2c(S(=O)(=O)O)cccc12", "Compound NOT metabolized"),
    ("CNC(=C[N+](=O)[O-])NCCSCc1csc(CN(C)C)n1", "Compound NOT metabolized"),
    ("C#C[C@]1(O)CC[C@H]2[C@@H]3CCC4=CC(=O)CC[C@@H]4[C@H]3CC[C@@]21CC", "Compound metabolized"),
    ("CN1CCN(C(=O)O[C@H]2c3nccnc3C(=O)N2c2ccc(Cl)cn2)CC1", "Compound NOT metabolized"),
    ("O=C(CCCN1CCC(O)(c2ccc(Cl)cc2)CC1)c1ccc(F)cc1", "Compound NOT metabolized"),
    ("CCN(CC)C(C)CN1c2ccccc2Sc2ccccc21 (stereo not given)", "Compound metabolized"),
    ("CC(Oc1c(Cl)cccc1Cl)C1=NCCN1 (stereo not given)", "Compound NOT metabolized"),
    ("CCCc1nc(C(C)(C)O)c(C(=O)OCc2oc(=O)oc2C)n1Cc1ccc(-c2ccccc2-c2nnn[nH]2)cc1", "Compound metabolized"),
    ("COc1ccccc1OCC(O)CN1CCN(CC(=O)Nc2c(C)cccc2C)CC1 (stereo not given)", "Compound NOT metabolized"),
    ("CCN(CC)CCNC(=O)c1cc(Cl)c(N)cc1OC [METOCLOPRAMIDE]", "Compound NOT metabolized"),
    ("NC12CC3CC(CC(C3)C1)C2", "Compound NOT metabolized"),
    ("CCCCC1=NC2(CCCC2)C(=O)N1Cc1ccc(-c2ccccc2-c2nnn[nH]2)cc1", "Compound metabolized"),
    ("CCCc1nc2c(C)cc(-c3nc4ccccc4n3C)cc2n1Cc1ccc(-c2ccccc2C(=O)O)cc1", "Compound metabolized"),
    ("CCc1nn(CCCN2CCN(c3cccc(Cl)c3)CC2)c(=O)n1CCOc1ccccc1", "Compound NOT metabolized"),
    ("C=CCc1ccccc1OCC(O)CNC(C)C (stereo not given)", "Compound NOT metabolized"),
    ("CCC(COC(=O)c1cc(OC)c(OC)c(OC)c1)(c1ccccc1)N(C)C.O=C(O)/C=C\\C(=O)O (stereo not given)", "Compound metabolized"),
    ("O=C1[C@H](CC[C@H](O)c2ccc(F)cc2)[C@@H](c2ccc(O)cc2)N1c1ccc(F)cc1", "Compound NOT metabolized"),
    ("Cc1ccnc2c1NC(=O)c1cccnc1N2C1CC1", "Compound NOT metabolized"),
    ("CCN(CC)CCOCCOC(=O)C1(c2ccccc2)CCCC1.O=C(O)CC(O)(CC(=O)O)C(=O)O [CARBETAPENTANE CITRATE]", "Compound metabolized"),
    ("Cc1cc2c(cc1S(N)(=O)=O)S(=O)(=O)CCC2", "Compound NOT metabolized"),
]
